# tested on: T1, Human ADAM10 from R & D Systems (human, UniProt O14672 214-672)
# T1 sequence (looked up): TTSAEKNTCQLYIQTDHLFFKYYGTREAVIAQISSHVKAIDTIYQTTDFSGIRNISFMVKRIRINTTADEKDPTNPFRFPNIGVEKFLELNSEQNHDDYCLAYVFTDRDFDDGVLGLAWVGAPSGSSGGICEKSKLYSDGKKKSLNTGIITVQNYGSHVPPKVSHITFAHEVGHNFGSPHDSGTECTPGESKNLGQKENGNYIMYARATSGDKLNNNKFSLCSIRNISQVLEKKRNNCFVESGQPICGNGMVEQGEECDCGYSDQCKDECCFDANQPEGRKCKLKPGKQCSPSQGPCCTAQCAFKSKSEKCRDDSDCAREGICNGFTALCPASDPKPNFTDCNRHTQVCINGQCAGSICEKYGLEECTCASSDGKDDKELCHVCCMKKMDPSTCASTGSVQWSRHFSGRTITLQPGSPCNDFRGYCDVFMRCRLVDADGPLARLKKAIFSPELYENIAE
# assay comment: cell-based or functional assay
Recorded IC50 (nM), inhibition of ADAM10 cleavage of the fluorescent substrate PEPDAB064 values for a group of binders are listed next.
reported metric: IC50 (nM), inhibition of ADAM10 cleavage of the fluorescent substrate PEPDAB064

binder="SEQ ID NO: 62 (R29A; R55A; C151S; E177A) (peptide) NPLNKYIRHYEGLSYNVDSLHQKHQRAKAAVSHEDQFLRLDFHAHGRHFNLRMKADTSLFSDEFKVETSNKVLDYDTSHIYTGHIYGEEGSFSHGSVIDGRFEGFIQTRGGTFYVEPAERYIKDRTLPFHSVIYHEDDINYPHKYGPQGGSADHSVFERMRKYQMTGVEEVTQIPQAEHAANGPELLRK" numeric_value=110
binder="Cys151-pegylated SEQ ID NO: 5 (K28A; K54A) (10 kDa maleimide PEG on Cys151) NPLNKYIRHYEGLSYNVDSLHQKHQRAARAVSHEDQFLRLDFHAHGRHFNLRMARDTSLFSDEFKVETSNKVLDYDTSHIYTGHIYGEEGSFSHGSVIDGRFEGFIQTRGGTFYVEPAERYIKDRTLPFHSVIYHEDDINYPHKYGPQGGCADHSVFERMRKYQMTGVEEVTQIPQEEHAANGPELLRK" numeric_value=83
